studyTarget: Metabotropic glutamate receptor 2 (Rattus norvegicus)
Sequence (P31421 whole entry): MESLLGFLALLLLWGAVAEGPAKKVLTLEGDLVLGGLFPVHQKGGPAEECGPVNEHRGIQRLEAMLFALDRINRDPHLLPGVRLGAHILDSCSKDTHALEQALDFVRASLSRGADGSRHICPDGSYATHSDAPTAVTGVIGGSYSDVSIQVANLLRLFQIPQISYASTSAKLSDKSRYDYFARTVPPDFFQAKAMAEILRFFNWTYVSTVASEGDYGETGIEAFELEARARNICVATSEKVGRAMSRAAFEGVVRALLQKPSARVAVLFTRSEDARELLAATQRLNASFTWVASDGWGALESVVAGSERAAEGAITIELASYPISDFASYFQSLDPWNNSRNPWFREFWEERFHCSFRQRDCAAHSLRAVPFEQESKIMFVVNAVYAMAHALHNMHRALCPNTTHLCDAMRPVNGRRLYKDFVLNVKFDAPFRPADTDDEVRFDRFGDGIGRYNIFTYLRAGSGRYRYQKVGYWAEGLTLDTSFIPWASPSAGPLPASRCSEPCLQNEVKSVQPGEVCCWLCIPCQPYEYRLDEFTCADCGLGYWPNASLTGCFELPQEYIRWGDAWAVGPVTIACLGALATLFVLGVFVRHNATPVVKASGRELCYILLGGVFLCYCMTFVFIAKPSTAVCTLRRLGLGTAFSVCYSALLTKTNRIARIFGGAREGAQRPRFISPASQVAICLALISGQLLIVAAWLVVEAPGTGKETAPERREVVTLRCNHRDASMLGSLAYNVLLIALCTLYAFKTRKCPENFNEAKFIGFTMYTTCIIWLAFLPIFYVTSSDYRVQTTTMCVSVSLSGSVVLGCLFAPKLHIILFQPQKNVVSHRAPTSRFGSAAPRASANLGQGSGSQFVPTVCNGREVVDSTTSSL
methodDescription: Negative allosteric modulator activity at glutamate-stimulated rat mGluR2 receptor expressed in HEK293 cells assessed as inhibition of thallium flux preincubated for 2 mins 20 secs followed by glutamate addition and measured for 2.5 mins by fluorescence based analysis
Format: cell-based
attributeMeasured: IC50 (nM)

Cc1ccc(-c2cc3c(cc2-c2ccc(F)cc2)C(=O)NC3)cn1 ... 659
O=C1NCc2cc(-c3cccnc3C3CC3)c(-c3ccc(F)cc3F)cc21 ... 693
